Target: 5-hydroxytryptamine receptor 2A (Rattus norvegicus, UniProt P14842)
Sequence (P14842 whole entry): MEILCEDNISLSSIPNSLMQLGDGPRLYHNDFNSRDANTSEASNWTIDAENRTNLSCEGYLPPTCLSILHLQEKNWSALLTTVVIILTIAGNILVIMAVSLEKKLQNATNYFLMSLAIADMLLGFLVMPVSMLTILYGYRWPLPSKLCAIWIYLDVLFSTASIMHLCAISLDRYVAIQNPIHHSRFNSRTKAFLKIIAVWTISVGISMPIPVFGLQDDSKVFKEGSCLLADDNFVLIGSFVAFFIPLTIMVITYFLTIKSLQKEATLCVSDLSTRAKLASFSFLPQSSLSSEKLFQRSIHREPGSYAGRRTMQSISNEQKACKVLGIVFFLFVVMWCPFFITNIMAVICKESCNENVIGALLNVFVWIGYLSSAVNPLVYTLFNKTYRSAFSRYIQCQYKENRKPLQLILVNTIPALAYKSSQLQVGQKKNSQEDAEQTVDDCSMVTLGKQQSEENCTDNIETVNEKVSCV
Assay: Ability to bind to central serotonin 5-hydroxytryptamine 2A receptor in vitro in cortex of the rat brain using [3H]ketanserin radioligand
Type: tissue-based
pKi: −log10 of the molar value.
recordedEndpoint: pKi

{"compoundSmiles": "Cn1c(=O)c2c(nc3nc(NCCN4CCN(c5ccccc5)CC4)ccn32)n(C)c1=O", "recordedEndpoint": "pKi", "observedValue": 6.49}
{"compoundSmiles": "Cn1c(=O)c2c(nc3nc(NCCCN4CCN(c5ccccc5)CC4)ccn32)n(C)c1=O", "recordedEndpoint": "pKi", "observedValue": 7.14}
{"compoundSmiles": "COc1ccccc1N1CCN(CCNc2nc3nc4c(c(=O)n(C)c(=O)n4C)n3cc2Br)CC1", "recordedEndpoint": "pKi", "observedValue": 7.07}
{"compoundSmiles": "Cn1c(=O)c2c(nc3nc(NCCCN4CCN(c5cccc(Cl)c5)CC4)c(Br)cn32)n(C)c1=O", "recordedEndpoint": "pKi", "observedValue": 7.07}
{"compoundSmiles": "Cn1c(=O)c2c(nc3n(CCCN4CCN(c5ccccc5)CC4)c(=O)ccn23)n(C)c1=O", "recordedEndpoint": "pKi", "observedValue": 5.33}

----------
Biological target: D(2) dopamine receptor (Rattus norvegicus, UniProt P61169)
Sequence (P61169 whole entry): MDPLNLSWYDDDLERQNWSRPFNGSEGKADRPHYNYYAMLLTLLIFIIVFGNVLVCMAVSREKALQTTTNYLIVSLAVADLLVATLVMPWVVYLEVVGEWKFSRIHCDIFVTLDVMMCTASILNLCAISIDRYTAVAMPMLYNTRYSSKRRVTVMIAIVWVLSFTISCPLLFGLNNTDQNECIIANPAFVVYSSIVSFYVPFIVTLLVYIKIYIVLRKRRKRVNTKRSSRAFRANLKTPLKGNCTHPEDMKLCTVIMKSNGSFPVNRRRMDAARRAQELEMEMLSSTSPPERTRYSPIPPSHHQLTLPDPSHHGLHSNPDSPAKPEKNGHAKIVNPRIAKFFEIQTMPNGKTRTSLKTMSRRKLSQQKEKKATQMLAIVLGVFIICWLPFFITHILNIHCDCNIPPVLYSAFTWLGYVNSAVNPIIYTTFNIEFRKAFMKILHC
Experiment: Ability to bind to Dopamine receptor D2 in vitro in rat sriatal membranes using [3H]spiperone radioligand
Returns the class for an entry based on its Ki. Class ranges: lower segment (below 200 nM), middle segment (200 nM to below 400 nM), upper segment (400 nM or more)

{"compoundSmiles": "Cn1c(=O)c2c(nc3nc(NCCN4CCN(c5cccc(Cl)c5)CC4)c(Br)cn32)n(C)c1=O", "className": "lower segment"}
{"compoundSmiles": "Cn1c(=O)c2c(nc3nc(NCCCN4CCN(c5ccccc5)CC4)c(Br)cn32)n(C)c1=O", "className": "upper segment"}
{"compoundSmiles": "COc1ccccc1N1CCN(CCNc2ccn3c(n2)nc2c3c(=O)n(C)c(=O)n2C)CC1", "className": "upper segment"}
{"compoundSmiles": "COc1ccccc1N1CCN(CCCNc2nc3nc4c(c(=O)n(C)c(=O)n4C)n3cc2Br)CC1", "className": "middle segment"}
{"compoundSmiles": "Cn1c(=O)c2c(nc3nc(NCCCN4CCN(c5ccccc5)CC4)ccn32)n(C)c1=O", "className": "upper segment"}
{"compoundSmiles": "Cn1c(=O)c2c(nc3nc(NCCN4CCN(c5ccccc5)CC4)c(Br)cn32)n(C)c1=O", "className": "upper segment"}
{"compoundSmiles": "Cn1c(=O)c2c(nc3nc(NCCCN4CCN(c5cccc(Cl)c5)CC4)ccn32)n(C)c1=O", "className": "lower segment"}
{"compoundSmiles": "Cn1c(=O)c2c(nc3nc(NCCN4CCN(c5cccc(Cl)c5)CC4)ccn32)n(C)c1=O", "className": "lower segment"}
{"compoundSmiles": "COc1ccccc1N1CCN(CCNc2nc3nc4c(c(=O)n(C)c(=O)n4C)n3cc2Br)CC1", "className": "middle segment"}
{"compoundSmiles": "Cn1c(=O)c2c(nc3nc(NCCCN4CCN(c5cccc(Cl)c5)CC4)c(Br)cn32)n(C)c1=O", "className": "middle segment"}
{"compoundSmiles": "COc1ccccc1N1CCN(CCCNc2ccn3c(n2)nc2c3c(=O)n(C)c(=O)n2C)CC1", "className": "upper segment"}
